Consider the following molecules; for each one, report its Stability (percentage remaining), time = 0.
Type: in vitro ADME
Details: mouse, plasma, 0 h
Response body: numeric value in %, unit text excluded.

[in] Fill blank: measured Stability (percentage remaining), time = 0 of the molecule CCc1c2c(nc3ccc(OC(=O)c4ccc(CN(CCCCOc5cc(CN(Cc6ccccn6)Cc6ccccn6)cc(CN(Cc6ccccn6)Cc6ccccn6)c5)C(=O)C5(c6ccc(Cl)cc6)CCCCC5)cc4)cc13)-c1cc3c(c(=O)n1C2)COC(=O)[C@]3(O)CC [Zn-DPA-(26)] is ____.
[out] 100

[in] And CCc1c2c(nc3ccc(OC(=O)CCSC4CC(=O)N(Cc5ccc(C(=O)NCCCCOc6cc(CN(Cc7ccccn7)Cc7ccccn7)cc(CN(Cc7ccccn7)Cc7ccccn7)c6)cc5)C4=O)cc13)-c1cc3c(c(=O)n1C2)COC(=O)[C@]3(O)CC (stereo partly drawn) [Zn-DPA-(12)] ?
[out] 100

[in] Can you check CCc1c2c(nc3ccc(OC(=O)c4cccc(NC(=O)NCCCCOc5cc(CN(Cc6ccccn6)Cc6ccccn6)cc(CN(Cc6ccccn6)Cc6ccccn6)c5)c4)cc13)-c1cc3c(c(=O)n1C2)COC(=O)[C@@]3(O)CC [Zn-DPA-(8)] next?
[out] 100

---

Tested on: MiaPaca2 cells
Assay: Cell viability MTS assay, MiaPaca2
Type: cell-based
Settings: Homo sapiens, MIA PaCa-2, 72 hours incubation
I'd appreciate it if you could supply IC50 values for the items below.
Please give a number only; it is taken to be in µM.

[in] Quick check: IC50 of CCc1c2c(nc3ccc(O)cc13)-c1cc3c(c(=O)n1C2)COC(=O)[C@]3(O)CC [SN-38, reference compound] ?
[out] 0.02

[in] Also CCc1c2c(nc3ccc(OC(=O)c4ccc(CN(CCOCCOCCNC(=O)c5ccc(CN(CCCCOc6cc(CN(Cc7ccccn7)Cc7ccccn7)cc(CN(Cc7ccccn7)Cc7ccccn7)c6)C(=O)C6(c7ccc(Cl)cc7)CCCCC6)cc5)C(=O)C5(c6ccc(Cl)cc6)CCCCC5)cc4)cc13)-c1cc3c(c(=O)n1C2)COC(=O)[C@]3(O)CC ?
[out] 0.55

[in] Input CCc1c2c(nc3ccc(OC(=O)c4ccc(CN(CCCCOc5cc(CN(Cc6ccccn6)Cc6ccccn6)cc(CN(Cc6ccccn6)Cc6ccccn6)c5)C(=O)C5(c6ccc(Cl)cc6)CCCCC5)cc4)cc13)-c1cc3c(c(=O)n1C2)COC(=O)[C@]3(O)CC
[out] 0.12

[in] Another molecule to check: CCc1c2c(nc3ccc(OC(=O)N4CCC(N5CCCCC5)CC4)cc13)-c1cc3c(c(=O)n1C2)COC(=O)[C@]3(O)CC [CPT-11, reference compound]
[out] 3.6

---

Assay type: in vitro ADME
Details: mouse, plasma, 6 h
Kindly state Stability (percentage remaining), time = 6 hr for each of the entries shown.
Answer with a number only, understood to be in %.

[in] Given CCc1c2c(nc3ccc(OC(=O)c4ccc(CN(CCCCOc5cc(CN(Cc6ccccn6)Cc6ccccn6)cc(CN(Cc6ccccn6)Cc6ccccn6)c5)C(=O)C5(c6ccc(Cl)cc6)CCCCC5)cc4)cc13)-c1cc3c(c(=O)n1C2)COC(=O)[C@]3(O)CC [Zn-DPA-(26)] , state its recorded Stability (percentage remaining), time = 6 hr.
[out] 97

[in] Same read-out for CCc1c2c(nc3ccc(OC(=O)CCSC4CC(=O)N(Cc5ccc(C(=O)NCCCCOc6cc(CN(Cc7ccccn7)Cc7ccccn7)cc(CN(Cc7ccccn7)Cc7ccccn7)c6)cc5)C4=O)cc13)-c1cc3c(c(=O)n1C2)COC(=O)[C@]3(O)CC (some centres unmarked) [Zn-DPA-(12)] ?
[out] 76

[in] Also CCc1c2c(nc3ccc(OC(=O)c4ccc(CN(CCCCOc5cc(CN(Cc6ccccn6)Cc6ccccn6)cc(CN(Cc6ccccn6)Cc6ccccn6)c5)C(=O)c5c(-c6ccccc6Cl)noc5C)cc4)cc13)-c1cc3c(c(=O)n1C2)COC(=O)[C@]3(O)CC [Zn-DPA-(25)] , if possible.
[out] 85

[in] Item: CCc1c2c(nc3ccc(OC(=O)c4ccc(CN(CCOCCOCCNC(=O)c5ccc(CN(CCCCOc6cc(CN(Cc7ccccn7)Cc7ccccn7)cc(CN(Cc7ccccn7)Cc7ccccn7)c6)C(=O)C6(c7ccc(Cl)cc7)CCCCC6)cc5)C(=O)C5(c6ccc(Cl)cc6)CCCCC5)cc4)cc13)-c1cc3c(c(=O)n1C2)COC(=O)[C@]3(O)CC [Zn-DPA-(42)]
[out] 98

[in] Okay, and CCc1c2c(nc3ccc(OC(=O)c4cccc(NC(=O)NCCCCOc5cc(CN(Cc6ccccn6)Cc6ccccn6)cc(CN(Cc6ccccn6)Cc6ccccn6)c5)c4)cc13)-c1cc3c(c(=O)n1C2)COC(=O)[C@@]3(O)CC [Zn-DPA-(8)] ?
[out] 82

---

What pIC50 was measured for each of the following?
Test system: human embryonic skin fibroblast Detroit 551
Test: Cell viability MTS assay, Detroit 551
Format: cell-based
Settings: 72 hours incubation
Procedure: SCM-1, MiaPaca2 and Colo205 cells were grown in RPMI 1640 (Roswell Park Memorial Institute) medium (RPMI; Gibco), supplemented with 10% fetal bovine serum (FBS; Gibco). […] Cell viability was examined by the MTS assay (Promega, Madison, Wis., USA). […] A medium was added along with a test compound at a pre-determined concentration. […] The conversion was determined by measuring the absorbance at 490 nm using a BioTek PowerWave-X Absorbance Microplate Reader. […]
API: returns pIC50 as number; meaning -log10 of concentration in mol/L.

[in] # input compound: CCc1c2c(nc3ccc(OC(=O)c4ccc(CN(CCCCOc5cc(CN(Cc6ccccn6)Cc6ccccn6)cc(CN(Cc6ccccn6)Cc6ccccn6)c5)C(=O)c5c(-c6ccccc6Cl)noc5C)cc4)cc13)-c1cc3c(c(=O)n1C2)COC(=O)[C@]3(O)CC [Zn-DPA-(25)] ; wanted: its pIC50
[out] 5.14

[in] Again, but for CCc1c2c(nc3ccc(OC(=O)CCSC4CC(=O)N(Cc5ccc(C(=O)NCCCCOc6cc(CN(Cc7ccccn7)Cc7ccccn7)cc(CN(Cc7ccccn7)Cc7ccccn7)c6)cc5)C4=O)cc13)-c1cc3c(c(=O)n1C2)COC(=O)[C@]3(O)CC (stereo partly shown) [Zn-DPA-(12)]
[out] 5.54

[in] Try this compound next: CCc1c2c(nc3ccc(OC(=O)c4cccc(NC(=O)NCCCCOc5cc(CN(Cc6ccccn6)Cc6ccccn6)cc(CN(Cc6ccccn6)Cc6ccccn6)c5)c4)cc13)-c1cc3c(c(=O)n1C2)COC(=O)[C@@]3(O)CC [Zn-DPA-(8)]
[out] 5.03

[in] One more compound: CCc1c2c(nc3ccc(O)cc13)-c1cc3c(c(=O)n1C2)COC(=O)[C@]3(O)CC [SN-38, reference compound]
[out] 5.40

---

Format: in vitro ADME
Conditions: mouse, plasma, 3 h
ENDPOINT LABEL: Stability (percentage remaining), time = 3 hr (%)
// return numeric value only (unit: %, not printed)

[in] // lookup Stability (percentage remaining), time = 3 hr for CCc1c2c(nc3ccc(OC(=O)CCSC4CC(=O)N(Cc5ccc(C(=O)NCCCCOc6cc(CN(Cc7ccccn7)Cc7ccccn7)cc(CN(Cc7ccccn7)Cc7ccccn7)c6)cc5)C4=O)cc13)-c1cc3c(c(=O)n1C2)COC(=O)[C@]3(O)CC (some centres unmarked)
[out] 84

[in] Okay, and CCc1c2c(nc3ccc(OC(=O)c4ccc(CN(CCCCOc5cc(CN(Cc6ccccn6)Cc6ccccn6)cc(CN(Cc6ccccn6)Cc6ccccn6)c5)C(=O)C5(c6ccc(Cl)cc6)CCCCC5)cc4)cc13)-c1cc3c(c(=O)n1C2)COC(=O)[C@]3(O)CC ?
[out] 99

[in] Same for CCc1c2c(nc3ccc(OC(=O)c4ccc(CN(CCOCCOCCNC(=O)c5ccc(CN(CCCCOc6cc(CN(Cc7ccccn7)Cc7ccccn7)cc(CN(Cc7ccccn7)Cc7ccccn7)c6)C(=O)C6(c7ccc(Cl)cc7)CCCCC6)cc5)C(=O)C5(c6ccc(Cl)cc6)CCCCC5)cc4)cc13)-c1cc3c(c(=O)n1C2)COC(=O)[C@]3(O)CC
[out] 99

[in] Now the same for CCc1c2c(nc3ccc(OC(=O)c4ccc(CN(CCCCOc5cc(CN(Cc6ccccn6)Cc6ccccn6)cc(CN(Cc6ccccn6)Cc6ccccn6)c5)C(=O)c5c(-c6ccccc6Cl)noc5C)cc4)cc13)-c1cc3c(c(=O)n1C2)COC(=O)[C@]3(O)CC
[out] 90

[in] // next record CCc1c2c(nc3ccc(OC(=O)c4cccc(NC(=O)NCCCCOc5cc(CN(Cc6ccccn6)Cc6ccccn6)cc(CN(Cc6ccccn6)Cc6ccccn6)c5)c4)cc13)-c1cc3c(c(=O)n1C2)COC(=O)[C@@]3(O)CC
[out] 90

---

Assay type: in vitro ADME
Conditions: mouse, plasma, 0 h
Would you mind telling me the reported Stability (percentage remaining), time = 0 of each entry?
Enter your answer as a number in %; do not include the unit.

[in] Dear colleague, I am looking for the recorded Stability (percentage remaining), time = 0 of the following compound: CCc1c2c(nc3ccc(OC(=O)c4ccc(CN(CCCCOc5cc(CN(Cc6ccccn6)Cc6ccccn6)cc(CN(Cc6ccccn6)Cc6ccccn6)c5)C(=O)c5c(-c6ccccc6Cl)noc5C)cc4)cc13)-c1cc3c(c(=O)n1C2)COC(=O)[C@]3(O)CC
[out] 100

[in] Also CCc1c2c(nc3ccc(OC(=O)c4ccc(CN(CCOCCOCCNC(=O)c5ccc(CN(CCCCOc6cc(CN(Cc7ccccn7)Cc7ccccn7)cc(CN(Cc7ccccn7)Cc7ccccn7)c6)C(=O)C6(c7ccc(Cl)cc7)CCCCC6)cc5)C(=O)C5(c6ccc(Cl)cc6)CCCCC5)cc4)cc13)-c1cc3c(c(=O)n1C2)COC(=O)[C@]3(O)CC ?
[out] 100
